Dmax listing for selected compounds.
- tested-on: LRRK2 (endogenous, HiBit tagged) (Homo sapiens)
- Construct: endogenous in cells; host or cells: HEK293 cells with HiBit knock-in at the endogenous LRRK2 locus, stably expressing firefly luciferase
- assay-comment: Endogenous LRRK2 degradation assay, endogenous gene C-terminally HiBit-tagged in HEK293 cells (Nano-Glo Dual Luciferase)
- Type: cell-based
- run-conditions: endogenous HiBit-tagged LRRK2 in HEK293 cells, 24 hours treatment; read-out: **Endogenous WT Dmax (%)

Please review the entries below; each comes with its answer.
CC1(Oc2ccc3[nH]nc(-c4cc(N5CCC(CN6CCN(C[C@@H]7CCN(c8ccc9c(c8F)CN(C8CCC(=O)NC8=O)C9=O)C7)CC6)CC5)ncn4)c3c2)CC1 (stereo partly shown) = 50 to 70%
CC1(Oc2ccc3n[nH]c(-c4cc(N5CCC(O[C@H]6C[C@H](N7CC8(CCN(c9ccc%10c(c9F)CN(C9CCC(=O)NC9=O)C%10=O)CC8)C7)C6)CC5)ncn4)c3c2)CC1 (stereo partly shown) = 50 to 70%
CC1(Oc2cc3c(-c4cc(N5CCC(O[C@H]6CC[C@H](CN7CCN(c8ccc9c(c8F)CN(C8CCC(=O)NC8=O)C9=O)CC7)CC6)CC5)ncn4)n[nH]c3cc2F)CC1 (stereo partly shown) = 50 to 70%

Which Dmax value is on record for COc1c(N2CCC(CN3CCN(CC4CCN(c5cc(-c6n[nH]c7cc(F)c(OC8(C)CC8)cc67)ncn5)CC4)CC3(C)C)CC2)ccc2c1CN(C1CCC(=O)NC1=O)C2=O (stereo not shown) ? ≥ 70%

Entry COc1c(N2CCC(CN3CCN(CC4CCN(c5cc(-c6n[nH]c7cnc(OC8(C)CC8)cc67)ncn5)CC4)[C@@H](C)C3)CC2)ccc2c1CN(C1CCC(=O)NC1=O)C2=O (stereo partly shown) please ≥ 70%

Entry C[C@H]1CN(c2cc(-c3n[nH]c4ccc(OC5(C)CC5)cc34)ncn2)CCN1CCN1CCC2(CN(c3ccc4c(c3F)CN(C3CCC(=O)NC3=O)C4=O)C2)C(F)(F)C1 (stereo partly shown) please 50 to 70%

Entry CC1(Oc2ccc3[nH]nc(-c4cc(N5CCC(CN6CC[C@H](OC7CCN(c8ccc9c(c8F)CN(C8CCC(=O)NC8=O)C9=O)CC7)CC6(C)C)CC5)ncn4)c3c2)CC1 (stereo partly shown) please 50 to 70%

Entry C[C@@H]1CN(CC2CCN(c3cc(-c4n[nH]c5cnc(OC6(C)CC6)cc45)ncn3)CC2)CCN1CC1CCN(c2ccc3c(c2F)CN(C2CCC(=O)NC2=O)C3=O)CC1 (stereo partly shown) please 50 to 70%

Entry COc1c(N2CCC(CN3CCC(OC4CN(c5cc(-c6[nH]nc7ccc(OC8(C)CC8)cc67)ncn5)C4)CC3)CC2)ccc2c1CN(C1CCC(=O)NC1=O)C2=O (stereo not shown) please 50 to 70%

Entry COc1c(N2CCC(CN3CCN(CC4CCN(c5cc(-c6n[nH]c7cnc(OC8(C)CC8)cc67)ncn5)CC4)C[C@H]3C)CC2)ccc2c1CN(C1CCC(=O)NC1=O)C2=O (stereo partly shown) please ≥ 70%

###

- tested-on: LRRK2 (endogenous, HiBit tagged) (Homo sapiens, UniProt Q5S007)
- Construct: endogenous in cells; host or cells: HEK293 cells with HiBit knock-in at the endogenous LRRK2 locus, stably expressing firefly luciferase
- Sequence (Q5S007 whole entry): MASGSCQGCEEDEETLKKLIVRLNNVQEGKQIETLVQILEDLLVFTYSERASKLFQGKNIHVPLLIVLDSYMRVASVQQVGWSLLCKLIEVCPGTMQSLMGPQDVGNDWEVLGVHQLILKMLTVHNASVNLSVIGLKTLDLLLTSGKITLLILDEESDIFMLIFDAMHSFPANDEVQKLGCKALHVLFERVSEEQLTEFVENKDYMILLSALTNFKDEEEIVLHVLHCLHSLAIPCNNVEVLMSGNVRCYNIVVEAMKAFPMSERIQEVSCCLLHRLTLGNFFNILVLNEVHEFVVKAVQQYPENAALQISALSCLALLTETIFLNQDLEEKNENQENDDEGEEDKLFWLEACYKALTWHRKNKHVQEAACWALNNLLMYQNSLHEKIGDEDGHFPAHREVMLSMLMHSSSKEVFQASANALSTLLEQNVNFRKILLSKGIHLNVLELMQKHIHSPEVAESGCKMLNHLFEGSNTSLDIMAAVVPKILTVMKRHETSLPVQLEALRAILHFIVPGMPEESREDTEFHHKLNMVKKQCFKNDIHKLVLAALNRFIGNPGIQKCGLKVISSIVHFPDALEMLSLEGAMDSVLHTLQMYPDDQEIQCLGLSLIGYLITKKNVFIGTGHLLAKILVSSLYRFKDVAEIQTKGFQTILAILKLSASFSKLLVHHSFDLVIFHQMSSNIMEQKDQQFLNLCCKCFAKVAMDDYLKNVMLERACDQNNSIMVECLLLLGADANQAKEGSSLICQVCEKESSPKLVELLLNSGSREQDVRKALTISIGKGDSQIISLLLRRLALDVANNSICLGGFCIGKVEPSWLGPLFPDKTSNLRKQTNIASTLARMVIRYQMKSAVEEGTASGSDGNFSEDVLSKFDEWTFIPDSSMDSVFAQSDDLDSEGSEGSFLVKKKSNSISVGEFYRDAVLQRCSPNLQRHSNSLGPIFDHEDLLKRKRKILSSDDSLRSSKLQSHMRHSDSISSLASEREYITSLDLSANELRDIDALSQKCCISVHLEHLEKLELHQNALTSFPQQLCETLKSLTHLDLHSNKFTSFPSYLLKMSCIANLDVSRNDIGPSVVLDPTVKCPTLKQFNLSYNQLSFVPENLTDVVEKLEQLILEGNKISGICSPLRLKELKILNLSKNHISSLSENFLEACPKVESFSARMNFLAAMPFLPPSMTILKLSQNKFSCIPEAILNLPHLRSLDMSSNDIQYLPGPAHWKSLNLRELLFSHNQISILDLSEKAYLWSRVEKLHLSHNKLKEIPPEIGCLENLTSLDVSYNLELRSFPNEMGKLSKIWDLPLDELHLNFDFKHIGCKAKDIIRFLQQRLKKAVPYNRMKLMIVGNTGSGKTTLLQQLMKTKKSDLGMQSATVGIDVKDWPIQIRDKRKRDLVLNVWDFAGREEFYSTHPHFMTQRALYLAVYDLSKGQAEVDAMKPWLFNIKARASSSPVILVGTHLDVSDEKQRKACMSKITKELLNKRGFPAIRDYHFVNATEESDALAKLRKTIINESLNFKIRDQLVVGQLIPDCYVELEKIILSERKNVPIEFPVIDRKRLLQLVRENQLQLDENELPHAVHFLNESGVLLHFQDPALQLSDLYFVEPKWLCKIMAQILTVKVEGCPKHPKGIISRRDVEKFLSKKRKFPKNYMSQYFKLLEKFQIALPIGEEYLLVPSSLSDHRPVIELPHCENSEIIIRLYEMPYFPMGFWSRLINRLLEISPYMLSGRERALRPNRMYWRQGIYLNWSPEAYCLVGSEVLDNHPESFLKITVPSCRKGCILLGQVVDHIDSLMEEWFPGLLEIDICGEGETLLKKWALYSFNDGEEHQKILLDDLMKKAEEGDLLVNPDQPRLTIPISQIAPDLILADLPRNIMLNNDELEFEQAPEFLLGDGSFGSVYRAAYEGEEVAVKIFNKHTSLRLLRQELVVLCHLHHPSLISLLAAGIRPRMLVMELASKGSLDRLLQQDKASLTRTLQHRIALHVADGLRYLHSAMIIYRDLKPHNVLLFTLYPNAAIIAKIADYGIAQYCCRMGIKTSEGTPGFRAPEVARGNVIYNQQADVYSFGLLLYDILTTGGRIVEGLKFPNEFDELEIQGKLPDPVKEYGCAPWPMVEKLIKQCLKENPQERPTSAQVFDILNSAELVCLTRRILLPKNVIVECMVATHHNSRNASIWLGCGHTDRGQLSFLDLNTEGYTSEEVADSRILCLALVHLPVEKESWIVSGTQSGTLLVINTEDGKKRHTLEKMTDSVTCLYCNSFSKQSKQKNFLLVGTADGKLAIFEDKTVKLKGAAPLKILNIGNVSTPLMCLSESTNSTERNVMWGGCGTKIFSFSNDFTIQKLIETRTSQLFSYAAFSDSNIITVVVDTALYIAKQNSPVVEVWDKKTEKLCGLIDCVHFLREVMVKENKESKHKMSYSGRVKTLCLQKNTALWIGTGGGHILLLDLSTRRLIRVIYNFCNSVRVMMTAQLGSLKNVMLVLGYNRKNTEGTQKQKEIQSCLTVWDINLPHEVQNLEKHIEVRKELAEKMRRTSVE
- assay-comment: Endogenous LRRK2 degradation assay, endogenous gene C-terminally HiBit-tagged in HEK293 cells (Nano-Glo Dual Luciferase)
- Type: cell-based
- run-conditions: endogenous HiBit-tagged LRRK2 in HEK293 cells, 24 hours treatment; read-out: **Endogenous WT Dmax (%)
parameter: Dmax

Please review the entries below; each comes with its answer.
CC1(Oc2ccc3[nH]nc(-c4cc(N5CCC(C(C)(C)N6CCN(CC7CCN(c8ccc9c(c8F)CN(C8CCC(=O)NC8=O)C9=O)CC7)CC6)CC5)ncn4)c3c2)CC1 (centres unmarked) = 50 to 70%
C[C@H]1CN(C[C@H]2CC[C@H](OC3CCN(c4cc(-c5n[nH]c6ccc(OC7(C)CC7)cc56)ncn4)CC3)CC2)CCN1c1ccc2c(c1F)CN(C1CCC(=O)NC1=O)C2=O (some centres unmarked) = 50 to 70%
CC1(Oc2ccc3[nH]nc(-c4cc(N5CC[C@H](CN6CCN(CC7CCN(c8ccc9c(c8F)CN(C8CCC(=O)NC8=O)C9=O)CC7)CC6)C5)ncn4)c3c2)CC1 (some centres unmarked) = 50 to 70%

Lab note: need Dmax with LRRK2 (endogenous, HiBit tagged) (Homo sapiens, UniProt Q5S007) for entry C[C@@H]1CN(CC2CCN(c3ccc4c(c3F)CN(C3CCC(=O)NC3=O)C4=O)CC2)CCN1CC1CCN(c2cc(-c3n[nH]c4cnc(OC5(C)CC5)cc34)ncn2)CC1 (some centres unmarked) , please look it up. ≥ 70%

Entry COc1c(N2CCC(CN3CCN(CC4CCN(c5cc(-c6n[nH]c7ccc(OC8(C)CC8)cc67)ncn5)CC4)C[C@@H]3C)CC2)ccc2c1CN(C1CCC(=O)NC1=O)C2=O (some centres unmarked) please ≥ 70%
